# study.target: GST-SP1 (UniProt P08047)
# Sequence (P08047 whole entry): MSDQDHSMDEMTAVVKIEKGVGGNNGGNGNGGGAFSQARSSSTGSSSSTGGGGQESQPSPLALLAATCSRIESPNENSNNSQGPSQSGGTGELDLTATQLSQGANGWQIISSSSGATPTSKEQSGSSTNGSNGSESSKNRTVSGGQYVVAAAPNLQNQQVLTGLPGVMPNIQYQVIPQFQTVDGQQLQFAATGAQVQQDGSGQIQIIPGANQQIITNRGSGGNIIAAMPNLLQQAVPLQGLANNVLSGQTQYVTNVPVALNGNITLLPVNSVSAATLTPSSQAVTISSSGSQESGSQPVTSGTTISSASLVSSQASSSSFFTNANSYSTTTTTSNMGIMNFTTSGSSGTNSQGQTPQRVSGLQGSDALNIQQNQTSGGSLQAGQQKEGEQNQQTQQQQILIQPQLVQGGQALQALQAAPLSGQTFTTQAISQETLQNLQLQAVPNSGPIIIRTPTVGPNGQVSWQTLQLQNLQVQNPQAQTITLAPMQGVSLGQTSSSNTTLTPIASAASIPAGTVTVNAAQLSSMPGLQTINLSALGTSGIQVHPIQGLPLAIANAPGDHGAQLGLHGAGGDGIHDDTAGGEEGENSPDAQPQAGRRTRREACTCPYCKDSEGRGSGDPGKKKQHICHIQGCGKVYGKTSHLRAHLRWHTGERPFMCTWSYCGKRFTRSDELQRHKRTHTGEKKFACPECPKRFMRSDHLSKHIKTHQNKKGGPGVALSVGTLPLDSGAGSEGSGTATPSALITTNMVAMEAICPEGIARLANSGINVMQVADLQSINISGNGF
# experiment.description: SPR
# conditions.used: 5-methylcytosine at CpG (underlining lost in text; CpG C at 1, 5, 7, 21); SPR VEGF165: DNA folded in 10 mM Tris-HCl, 100 mM KCl, pH 7.4, 25 °C; ELONA: DNA folded in TK (100 mM KCl) or 100 mM LiCl buffer, binding in TBS (10 mM …)
pKd: −log10 of the molar value.
property.name: pKd

{"seq": "CGGGCGCGGGAGGAAGGGGGCGGGAGC [BCL-2 G4 methylated]", "property.name": "pKd", "recorded.number": 7.55}

---

# study.target: GST-SP1 (UniProt P08047)
# experiment.description: SPR
# conditions.used: 5-methylcytosine at CpG (underlining lost in text; CpG C at 1, 6, 11, 17, 23); SPR VEGF165: DNA folded in 10 mM Tris-HCl, 100 mM KCl, pH 7.4, 25 °C; ELONA: DNA folded in TK (100 mM KCl) or 100 mM LiCl buffer, binding in TBS (10 mM …)

{"seq": "CGGGGCGGGGCGGGGGCGGGGGCG [HRAS2 G4 methylated]", "study.target": "GST-SP1 (UniProt P08047)", "Kd": "0.027 µM"}
